Task for the reader: assign each of the following compounds its reported Best CI.
System: panel of breast cancer cell lines
Assay: Compound A with targeted agents and chemotherapies, 72-hour in vitro proliferation assays
Type: cell-based
Conditions: MCF7 cells; Compound A × partner agent; 72-hour proliferation
Counter-ions that a name gives are not always drawn.
# print the numeric value only

Query :: For the compound "CCN1CCN(Cc2ccc(Nc3ncc(F)c(-c4cc(F)c5nc(C)n(C(C)C)c5c4)n3)nc2)CC1" , what Best CI is on record?
Result :: 1.06

Query :: Now consider CC/C(=C(\c1ccccc1)c1ccc(OCCN(C)C)cc1)c1ccccc1 [Tamoxifen Citrate] .
Result :: 0.41

Query :: Next compound: "N.N.O=C([O-])C1(C(=O)[O-])CCC1.[Pt+2]"
Result :: 0.40

Query :: Moving on to the next compound: N.N.[Cl][Pt][Cl] [Cisplatin]
Result :: 0.45

Query :: Check CC(=O)O[C@H]1C(=O)[C@@]2(C)[C@H]([C@H](OC(=O)c3ccccc3)[C@]3(O)C[C@H](OC(=O)[C@H](O)[C@@H](NC(=O)c4ccccc4)c4ccccc4)C(C)=C1C3(C)C)[C@]1(OC(C)=O)CO[C@@H]1C[C@@H]2O [Paclitaxel, reference compound] too.
Result :: 0.32

Query :: Next record, please: CS(=O)(=O)CCNCc1ccc(-c2ccc3ncnc(Nc4ccc(OCc5cccc(F)c5)c(Cl)c4)c3c2)o1 [Lapatinib Ditosylate]
Result :: 0.34

Data origin, for the record: patent US11931424B2
